target: KCNQ2/3 channels (Homo sapiens, UniProt O43525+O43526); construct: expressed in transfected cells; host or cells: CHO-K1 cells, kept under selection antibiotics; test: Fluorescence assay using a voltage sensitive dye (fluorimetry); format: cell-based; details: 10 μM; Table 4 comparison experiments
Just a reminder that ties go to NO: only KCNQ2/3 stimulation at 10 μM strictly below 80% counts as YES.

Examples with answers:
>  <MOLECULE>
FC(F)(F)Sc1ccc(CNc2noc3ccccc23)cc1 [E1, reference compound]

>  <ASSIGNED_CATEGORY>
YES

$$$$
>  <MOLECULE>
FC(F)(F)Sc1ccc(CNc2noc3cnccc23)cc1

>  <ASSIGNED_CATEGORY>
YES

$$$$
>  <MOLECULE>
FC(F)(F)Sc1ccc(CNc2noc3ccncc23)cc1

>  <ASSIGNED_CATEGORY>
YES

$$$$
>  <MOLECULE>
FC(F)(F)Sc1ccc(CNc2noc3cccnc23)cc1

>  <ASSIGNED_CATEGORY>
NO

$$$$

Field: next molecule
stdin: Is KCNQ2/3 stimulation at 10 μM strictly under 80% for the entry FC(F)(F)Sc1ccc(CNc2noc3ncccc23)cc1 ?
stdout: YES
